Reference for the values: patent US20230027361A1

- assay target: METTL3/METTL14 (Homo sapiens, UniProt Q86U44)
- Sequence (Q86U44 whole entry, species assumed): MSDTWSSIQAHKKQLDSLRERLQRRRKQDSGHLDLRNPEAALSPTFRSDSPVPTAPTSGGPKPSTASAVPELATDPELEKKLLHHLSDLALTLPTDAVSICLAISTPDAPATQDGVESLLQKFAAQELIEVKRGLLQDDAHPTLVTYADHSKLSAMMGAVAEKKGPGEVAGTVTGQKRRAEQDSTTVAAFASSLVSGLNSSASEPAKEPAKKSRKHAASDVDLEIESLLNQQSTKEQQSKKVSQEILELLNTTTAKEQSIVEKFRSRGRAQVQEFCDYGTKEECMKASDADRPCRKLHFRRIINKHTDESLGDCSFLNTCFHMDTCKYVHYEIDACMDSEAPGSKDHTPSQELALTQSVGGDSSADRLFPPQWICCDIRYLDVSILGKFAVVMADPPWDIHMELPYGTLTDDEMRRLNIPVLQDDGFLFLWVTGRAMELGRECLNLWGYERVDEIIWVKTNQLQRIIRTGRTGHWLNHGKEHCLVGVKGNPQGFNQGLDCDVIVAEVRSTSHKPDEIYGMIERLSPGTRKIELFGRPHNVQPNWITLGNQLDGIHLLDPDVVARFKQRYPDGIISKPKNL
- Sequence (Q9HCE5 whole entry partner, species assumed): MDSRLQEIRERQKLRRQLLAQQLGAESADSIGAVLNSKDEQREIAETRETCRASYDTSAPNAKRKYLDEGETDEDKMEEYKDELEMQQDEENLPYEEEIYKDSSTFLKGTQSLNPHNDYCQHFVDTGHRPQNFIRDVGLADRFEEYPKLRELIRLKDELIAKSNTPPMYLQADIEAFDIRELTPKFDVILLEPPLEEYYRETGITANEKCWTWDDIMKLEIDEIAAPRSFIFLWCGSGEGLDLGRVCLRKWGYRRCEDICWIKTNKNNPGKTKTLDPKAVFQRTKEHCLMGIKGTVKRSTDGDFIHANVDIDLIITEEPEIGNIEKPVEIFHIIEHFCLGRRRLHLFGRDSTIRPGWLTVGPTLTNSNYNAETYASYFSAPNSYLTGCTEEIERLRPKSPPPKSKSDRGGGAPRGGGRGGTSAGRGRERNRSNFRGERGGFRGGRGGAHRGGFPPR
- assay name: METTL3-14 Standard Enzyme Assay (METTL3 biochemical assay)
- condition set: METTL3 biochemical assay; read-out: METTL3 IC50
- Procedure: Assays were performed in a 25 μl-volume in 384-well V-bottom polypropylene microplates (Greiner Bio-One, cat. No. 781280) at ambient temperature. Optimized 1× assay buffer was 20 mM HEPES pH 7.5, 50 mM KCl, 250 μM MgCl2, 1 mM DTT, 0.01% Tween, 0.01% BSG, 0.004 U/μl RNAseOUT (cat. No. 10777019, ThermoFisher Scientific, Waltham, Mass.). […] Following two washing cycles with 0.1% Tween-20, the plates were sealed and read on a TopCount (PerkinElmer, Waltham, Mass.) plate-based scintillation counter. […]
assay metric: IC50

Example entries begin here.
{"smiles repr": "CNc1ccc2cnc(OC[C@H]3O[C@@H](n4cc(Br)c5c(N)ncnc54)[C@H](O)[C@@H]3O)nc2n1", "result": "> 1000 nM"}
{"smiles repr": "Nc1ncnc2c1ccn2[C@@H]1C[C@H](CCc2cnc3cccnc3c2)[C@@H](O)[C@H]1O", "result": "> 1000 nM"}
{"smiles repr": "CNc1ccc2ccc(OC[C@H]3O[C@@H](n4cc(C)c5c(N)ncnc54)[C@@H](F)[C@@H]3O)cc2n1", "result": "10 to 100 nM"}
{"smiles repr": "Cc1cc2c(N)ncnc2n1[C@@H]1C[C@H](COc2ccc3ccc(N)nc3c2)[C@@H](O)[C@H]1O", "result": "> 1000 nM"}
{"smiles repr": "Nc1ncnc2c1ccn2[C@@H]1O[C@H](COc2ccc3ccc(N4CCOCC4)nc3c2)[C@@H](O)[C@H]1O", "result": "10 to 100 nM"}

# get_value(readout='IC50', item= CNc1ccc2ccc(OC[C@H]3O[C@@H](n4cc(Br)c5c(N)nccc54)[C@@H](F)[C@@H]3O)cc2n1 )
100 to 1000 nM

# get_value(readout='IC50', item= CNc1ccc2ccc(OC[C@H]3O[C@@H](n4cc(CC5CCCC5)c5c(N)ncnc54)[C@H](O)[C@@H]3O)cc2n1 )
< 10 nM

# get_value(readout='IC50', item= CNc1ccc2ccc(OC[C@H]3O[C@@H](n4cc(CC5CC5)c5c(N)ncnc54)[C@H](O)[C@@H]3O)cc2n1 )
< 10 nM

# get_value(readout='IC50', item= CNc1ccc2ccc(OC[C@H]3O[C@@H](n4cc(-c5ccn(C6CCC6)n5)c5c(N)ncnc54)[C@@H](F)[C@@H]3O)cc2n1 )
< 10 nM

# get_value(readout='IC50', item= CCNc1ccc2ccc(OC[C@H]3O[C@@H](n4ccc5c(N)ncnc54)[C@H](O)[C@@H]3O)cc2n1 )
< 10 nM

# get_value(readout='IC50', item= Nc1cc(OC[C@H]2O[C@@H](n3ccc4c(N)ncnc43)[C@@H](F)[C@@H]2O)ccc1C(=O)N1CCNCC1 )
> 1000 nM

###

- assay target: METTL3/METTL14 (Homo sapiens)
- assay name: METTL3-14 Standard Enzyme Assay (METTL3 biochemical assay)
- condition set: METTL3 biochemical assay; read-out: METTL3 IC50
assay metric: IC50

Example entries begin here.
{"smiles repr": "CNc1ccc2ccc(OC[C@H]3O[C@@H](n4cc(C5=CCNC5)c5c(N)ncnc54)[C@@H](F)[C@@H]3O)cc2n1", "assay target": "METTL3/METTL14 (Homo sapiens)", "assay metric": "IC50", "result": "10 to 100 nM"}
{"smiles repr": "Nc1ccc2ccc(CC[C@H]3C[C@@H](n4cc(Br)c5c(N)ncnc54)[C@H](O)[C@@H]3O)cc2n1", "assay target": "METTL3/METTL14 (Homo sapiens)", "assay metric": "IC50", "result": "10 to 100 nM"}
{"smiles repr": "CNc1ccc2ccc(OC[C@H]3O[C@@H](n4cc(Cl)c5c(N)ncnc54)[C@@H](F)[C@@H]3O)cc2n1", "assay target": "METTL3/METTL14 (Homo sapiens)", "assay metric": "IC50", "result": "< 10 nM"}
{"smiles repr": "Cc1cc(N)c2ccc(OC[C@H]3O[C@@H](n4cc(C5CCCC5)c5c(N)ncnc54)[C@H](O)[C@@H]3O)cc2n1", "assay target": "METTL3/METTL14 (Homo sapiens)", "assay metric": "IC50", "result": "10 to 100 nM"}
{"smiles repr": "CNc1ccc2ccc(CC[C@H]3C[C@@H](n4cc(C5CCCCC5)c5c(N)ncnc54)[C@H](O)[C@@H]3O)cc2n1", "assay target": "METTL3/METTL14 (Homo sapiens)", "assay metric": "IC50", "result": "< 10 nM"}

# get_value(readout='IC50', item= Cc1cc2c(N)ncnc2n1[C@@H]1C[C@H](CCc2ccc3nc(N)ccc3c2)[C@@H](O)[C@H]1O )
> 1000 nM

# get_value(readout='IC50', item= Cc1cn([C@@H]2O[C@H](COc3ccc4ccc(N)nc4c3)[C@@H](O)[C@H]2O)c2ncnc(N)c12 )
> 1000 nM

###

- assay target: METTL3/METTL14 (Homo sapiens, UniProt Q86U44)
- assay name: METTL3-14 Standard Enzyme Assay (METTL3 biochemical assay)
- condition set: read-out: METTL3 IC50; METTL3 biochemical assay
assay metric: IC50

Example entries begin here.
{"smiles repr": "CNc1ccc2ccc(OC[C@H]3O[C@@H](n4cc(-c5ccn(C)n5)c5c(N)ncnc54)[C@H](O)[C@@H]3O)cc2n1", "IC50": "< 0.01 µM"}
{"smiles repr": "CNc1ccc2ccc(OC[C@H]3O[C@@H](n4cc(-c5ccccn5)c5c(N)ncnc54)[C@@H](F)[C@@H]3O)cc2n1", "IC50": "< 0.01 µM"}
{"smiles repr": "CCNc1ccc2ccc(OC[C@H]3O[C@@H](n4cc(-c5cn(C)cn5)c5c(N)ncnc54)[C@@H](F)[C@@H]3O)cc2n1", "IC50": "< 0.01 µM"}
{"smiles repr": "Cn1cc(-c2cn([C@@H]3C[C@H](CCc4ccc5ccc(N)nc5c4)[C@@H](O)[C@H]3O)c3ncnc(N)c23)cn1", "IC50": "0.1 to 1 µM"}
{"smiles repr": "CCNc1ccc2ccc(OC[C@H]3O[C@@H](n4cc(-c5ccn(C)n5)c5c(N)ncnc54)[C@@H](F)[C@@H]3O)cc2n1", "IC50": "< 0.01 µM"}

As a next step, examine the molecule that follows.
# get_value(readout='IC50', item= CNc1ccc2ccc(OC[C@H]3O[C@@H](n4cc(-c5ccn(C(C)C)n5)c5c(N)ncnc54)[C@@H](F)[C@@H]3O)cc2n1 )
< 0.01 µM

###

- assay target: PRMT5-MEP50 (Homo sapiens)
- Sequence (O14744 whole entry): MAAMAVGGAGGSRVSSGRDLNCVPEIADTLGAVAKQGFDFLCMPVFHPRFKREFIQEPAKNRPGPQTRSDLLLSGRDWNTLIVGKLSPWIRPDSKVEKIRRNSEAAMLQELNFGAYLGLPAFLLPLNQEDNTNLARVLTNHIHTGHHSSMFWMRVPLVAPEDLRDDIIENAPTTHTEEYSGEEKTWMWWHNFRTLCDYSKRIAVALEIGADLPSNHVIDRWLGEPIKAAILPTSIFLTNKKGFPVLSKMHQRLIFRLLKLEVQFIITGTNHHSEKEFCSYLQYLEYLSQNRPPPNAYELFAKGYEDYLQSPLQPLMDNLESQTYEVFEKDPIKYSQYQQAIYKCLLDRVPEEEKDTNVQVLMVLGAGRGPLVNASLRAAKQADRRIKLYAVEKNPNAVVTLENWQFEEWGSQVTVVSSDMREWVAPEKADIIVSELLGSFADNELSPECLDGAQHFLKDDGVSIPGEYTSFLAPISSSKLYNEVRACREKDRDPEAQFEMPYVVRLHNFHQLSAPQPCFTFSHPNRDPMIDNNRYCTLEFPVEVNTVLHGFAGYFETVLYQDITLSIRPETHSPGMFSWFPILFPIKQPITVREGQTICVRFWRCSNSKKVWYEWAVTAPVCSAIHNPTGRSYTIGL
- Sequence (Q9BQA1 whole entry partner): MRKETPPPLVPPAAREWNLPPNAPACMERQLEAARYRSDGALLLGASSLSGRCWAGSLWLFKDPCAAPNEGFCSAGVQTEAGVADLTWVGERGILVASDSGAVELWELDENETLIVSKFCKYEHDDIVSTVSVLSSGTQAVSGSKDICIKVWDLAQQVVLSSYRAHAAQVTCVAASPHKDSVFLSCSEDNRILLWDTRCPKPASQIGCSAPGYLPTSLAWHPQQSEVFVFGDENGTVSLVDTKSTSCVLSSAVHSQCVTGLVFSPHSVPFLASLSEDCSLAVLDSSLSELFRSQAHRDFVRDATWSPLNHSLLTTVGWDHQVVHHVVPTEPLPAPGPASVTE
- assay name: PRMT5 Assay (PRMT5 biochemical assay)
- condition set: PRMT5 biochemical assay; read-out: PRMT5 IC50
pIC50: −log10 of the molar value.
assay metric: pIC50

{"smiles repr": "CNc1ccc2ccc(OC[C@H]3O[C@@H](n4cc(Br)c5c(N)ncnc54)[C@H](O)[C@@H]3O)cc2n1", "result": "> 8.00"}
{"smiles repr": "Nc1ncnc2c1c([C@@H]1CCCO1)cn2[C@@H]1O[C@H](COc2ccc3ccc(N4CCC4)nc3c2)[C@@H](O)[C@@H]1F", "result": "6.00 to 7.00"}
{"smiles repr": "Nc1ncnc2c1ccn2[C@@H]1C[C@H](CCc2ccc3scnc3c2)[C@@H](O)[C@H]1O", "result": "> 8.00"}

# get_value(readout='pIC50', item= Nc1ncnc2c1ccn2[C@H]1C[C@H](O)[C@@H](COc2ccc3ccc(N4CCC4)nc3c2)O1 )
< 6.00

# get_value(readout='pIC50', item= CNc1ccc2ccc(OC[C@H]3O[C@@H](n4cc(C5CC5)c5c(N)ncnc54)[C@@H](F)[C@@H]3O)cc2n1 )
6.00 to 7.00

# get_value(readout='pIC50', item= Cc1cc(N)c2ccc(OC[C@H]3O[C@@H](n4cc(Br)c5c(N)ncnc54)[C@@H](F)[C@@H]3O)cc2n1 )
6.00 to 7.00

# get_value(readout='pIC50', item= CNc1ccc2ccc(OC[C@H]3O[C@@H](n4cc(C5CCC(F)(F)CC5)c5c(N)ncnc54)[C@H](O)[C@@H]3O)cc2n1 )
7.00 to 8.00

###

Recorded IC50 values for a group of molecules are listed next.
- assay target: METTL3/METTL14 (Homo sapiens)
- assay name: METTL3-14 Standard Enzyme Assay (METTL3 biochemical assay)

# get_value(readout='IC50', item= CN(C)C(=O)c1cn([C@@H]2O[C@H](COc3ccc4ccc(N5CCC5)nc4c3)[C@@H](O)[C@@H]2F)c2ncnc(N)c12 [I-216] )
10 to 100 nM

# get_value(readout='IC50', item= CCc1cc(N(C)C)c2ccc(OC[C@H]3O[C@@H](n4cc(-c5ccn(C)n5)c5c(N)ncnc54)[C@@H](F)[C@@H]3O)cc2n1 [I-153] )
< 10 nM

# get_value(readout='IC50', item= Cn1ccc(-c2cn([C@@H]3O[C@H](COc4ccc5ccc(NC67CC(C6)C7)nc5c4)[C@@H](O)[C@@H]3F)c3ncnc(N)c23)n1 [I-200] )
< 10 nM

# get_value(readout='IC50', item= CNc1ccc2ccc(OC[C@H]3O[C@@H](n4cc(-c5cccc(C)n5)c5c(N)ncnc54)[C@@H](F)[C@@H]3O)cc2n1 [I-229] )
< 10 nM

# get_value(readout='IC50', item= CNc1ccc2ccc(OC[C@H]3O[C@@H](n4cc(-c5cc[nH]n5)c5c(N)ncnc54)[C@@H](F)[C@@H]3O)cc2n1 [I-228] )
< 10 nM

# get_value(readout='IC50', item= CCc1cc(N(C)CC2CC2)c2ccc(OC[C@H]3O[C@@H](n4cc(-c5ccn(C)n5)c5c(N)ncnc54)[C@@H](F)[C@@H]3O)cc2n1 [I-155] )
< 10 nM
